Molecular target: CYP P450 2C19 (Homo sapiens, UniProt P33261)
Sequence (P33261 whole entry): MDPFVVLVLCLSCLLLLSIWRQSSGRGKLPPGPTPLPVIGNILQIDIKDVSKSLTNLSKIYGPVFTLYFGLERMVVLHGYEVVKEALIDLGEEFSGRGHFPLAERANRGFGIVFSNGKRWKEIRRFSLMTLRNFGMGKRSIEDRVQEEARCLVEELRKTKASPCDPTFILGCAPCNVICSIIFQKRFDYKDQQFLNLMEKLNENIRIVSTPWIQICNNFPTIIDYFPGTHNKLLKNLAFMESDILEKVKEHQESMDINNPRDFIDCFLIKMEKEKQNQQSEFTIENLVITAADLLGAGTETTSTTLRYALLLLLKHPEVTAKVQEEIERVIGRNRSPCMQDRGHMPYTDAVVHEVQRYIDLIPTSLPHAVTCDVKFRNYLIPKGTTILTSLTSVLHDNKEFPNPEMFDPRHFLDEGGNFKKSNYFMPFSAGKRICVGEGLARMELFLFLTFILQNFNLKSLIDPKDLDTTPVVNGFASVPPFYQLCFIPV
Conditions: read-out: IC50 CYP450 2C19
value type: IC50

Result for `Cc1ccc(-c2ncn(-c3ccc(Nc4nccc(-c5cccc(N6CCOCC6)c5)n4)cc3)n2)cn1` , tested on CYP P450 2C19 (Homo sapiens, UniProt P33261), IC50: > 50 µM

====

Target: monoamine oxidase B (MAO-B) (Homo sapiens)
Sequence (P27338 whole entry, species assumed): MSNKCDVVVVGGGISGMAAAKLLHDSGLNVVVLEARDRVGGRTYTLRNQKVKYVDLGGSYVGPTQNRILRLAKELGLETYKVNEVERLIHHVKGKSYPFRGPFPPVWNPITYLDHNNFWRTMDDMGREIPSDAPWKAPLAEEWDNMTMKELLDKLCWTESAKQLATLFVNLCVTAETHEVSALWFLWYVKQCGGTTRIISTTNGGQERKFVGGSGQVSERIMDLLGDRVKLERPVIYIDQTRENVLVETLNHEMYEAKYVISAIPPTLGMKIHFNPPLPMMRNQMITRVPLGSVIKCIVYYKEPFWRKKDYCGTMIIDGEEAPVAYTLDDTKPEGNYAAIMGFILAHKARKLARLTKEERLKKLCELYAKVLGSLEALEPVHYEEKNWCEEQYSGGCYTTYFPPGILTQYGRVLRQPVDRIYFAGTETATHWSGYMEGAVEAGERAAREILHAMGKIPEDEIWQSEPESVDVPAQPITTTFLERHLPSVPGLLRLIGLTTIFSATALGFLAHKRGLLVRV
value type: IC50

Result for Cc1ccc(-c2ncn(-c3ccc(Nc4nccc(-c5cccc(N6CCOCC6)c5)n4)cc3)n2)cn1 [SR-3306] , tested on monoamine oxidase B (MAO-B) (Homo sapiens), IC50: > 50 µM
